Exercise: for every item that follows, state its recorded Antibacterial IC50 MRS.
System: methicillin-resistant Staphylococcus aureus
Assay: Antibacterial activity against MRS
Format: cell-based
Settings: T5; NA = not active
Answers are plain numbers, in µg/mL.

# annotated cases, reported Antibacterial IC50 MRS shown
O[C@]12C=C(c3nccc4c3[nH]c3ccccc34)[C@@H]3CCN(CCCC/C=C\CC1)C[C@@]31C[C@@H]3/C=C\CCCCN3[C@H]12 [Manzamine A] :: 0.7
OCC1=C[C@]2(O)CC/C=C\CCCCN3CC[C@@H]1[C@@]1(C[C@H]4/C=C\CCCCN4[C@@H]12)C3 [Ircinol A] :: 30
O[C@]12C=C(c3nccc4c3[nH]c3ccccc34)C3CCN(CCCC/C=C\CC1)C[C@@]31C[C@]34CC[C@H](CCCN3[C@H]12)O4 (some centres unmarked) [6-Deoxymanzamine X] :: 1.5
Oc1ccc2[nH]c3c(C4=C[C@@]5(O)CC/C=C\CCCCN6CC[C@@H]4[C@@]4(C6)C[C@@]67CC[C@@H](CCCN6[C@H]45)O7)nccc3c2c1 [Manzamine X] :: 0.75

Attention now shifts to the item below.
[in] Please list Antibacterial IC50 MRS recorded for the molecule Oc1cccc2c1[nH]c1c(C3=C[C@@]4(O)CC/C=C\CCCCN5CCC3[C@]3(CC6/C=C\CCCCN6[C@H]34)C5)nccc12 (single isomer, unassigned; (+)) [(+)-8-Hydroxymanzamine A]
[out] 4.0

----------
Test system: HIV-1LAV
Experiment: Anti-HIV-1 activity in PBM cells
Assay type: cell-based, human immunodeficiency virus (HIV-1)
Settings: T5
value-kind: EC50 (µM)
Numbers only, in µM.

# annotated cases, reported EC50 shown
O=C1CCCN2C3C45C=C(c6nccc7c6[nH]c6ccccc67)C6CCN(CCCC/C=C\CC4)CC63C[C@@]2(CC1)O5 (stereo partly drawn) :: 17.5
Oc1cccc2c1[nH]c1c(C3=C[C@@]4(O)CC/C=C\CCCCN5CCC3[C@]3(CC6/C=C\CCCCN6[C@H]34)C5)nccc12 (single isomer, unassigned; (+)) [(+)-8-Hydroxymanzamine A] :: 0.59
O[C@]12C=C(c3nccc4c3[nH]c3ccccc34)[C@@H]3CCN(CCCC/C=C\CC1)C[C@@]31C[C@@H]3/C=C\CCCCN3[C@H]12 :: 4.2
O=C1CCCN2[C@@H](CC1)C[C@]13CN4CCCC/C=C\CC[C@](O)(C=C(c5nccc6c5[nH]c5ccccc56)[C@@H]1CC4)[C@H]23 :: 13.1
O[C@]12C=C(c3nccc4c3[nH]c3ccccc34)C3CCN(CCCC/C=C\CC1)C[C@@]31C[C@]34CC[C@H](CCCN3[C@H]12)O4 (stereo partly drawn) :: 1.6

// each molecule listed below needs its EC50
1. Oc1ccc2[nH]c3c(C4=C[C@@]5(O)CC/C=C\CCCCN6CC[C@@H]4[C@@]4(C6)C[C@@]67CC[C@@H](CCCN6[C@H]45)O7)nccc3c2c1
2. O=C1CCCN2[C@@H](CC1)C[C@]13CN4CCCC/C=C\CC[C@](O)(C=C(c5nccc6c5[nH]c5c(O)cccc56)C1CC4)[C@H]23 (stereo partly drawn)
3. OCC1=C[C@]2(O)CC/C=C\CCCCN3CC[C@@H]1[C@@]1(C[C@H]4/C=C\CCCCN4[C@@H]12)C3
4. O=CC1=C[C@@]2(O)CC/C=C\CCCCN3CC[C@@H]1[C@]1(CC4/C=C\CCCCN4[C@H]12)C3 (stereo partly drawn)

[out]
2.3
7.3
4.3
6.8

src = patent US20050085554A1
